- System: P2X2/P2X3 heterotrimeric receptor (Homo sapiens) (UniProt Q9UBL9+P56373)
- Assay Notes: Antagonist activity at human P2X2/3R transfected in CHO-K1 cells at 30 uM preincubated for 30 mins followed by alpha,beta-meATP addition by fluorescence based assay relative to control
- Format: cell-based
- Parameters: scale not given: the % may be the effect or the level left
Metric Name: Activity (%)
Entry rule: numbers only, all in %.

- Smiles Structure: "O=C1CC(=O)N(c2cccc(-c3noc(=S)[nH]3)c2)c2cc(C#Cc3cccnc3)c3ccccc3c2N1"
  System: "P2X2/P2X3 heterotrimeric receptor (Homo sapiens) (UniProt Q9UBL9+P56373)"
  Endpoint Unit: "%"
  Result: 13
- Smiles Structure: "Cc1ccc2c(Br)cc3c(c2c1)NC(=O)CC(=O)N3c1cccc(-c2noc(=S)[nH]2)c1"
  System: "P2X2/P2X3 heterotrimeric receptor (Homo sapiens) (UniProt Q9UBL9+P56373)"
  Endpoint Unit: "%"
  Result: -5
- Smiles Structure: "CC(=O)NCc1ccc2ccc3c(c2c1)NC(=O)CC(=O)N3c1cccc(-c2noc(=S)[nH]2)c1"
  System: "P2X2/P2X3 heterotrimeric receptor (Homo sapiens) (UniProt Q9UBL9+P56373)"
  Endpoint Unit: "%"
  Result: -5
- Smiles Structure: "[N-]=[N+]=NCc1ccc2ccc3c(c2c1)NC(=O)CC(=O)N3c1cccc(-c2noc(=S)[nH]2)c1"
  System: "P2X2/P2X3 heterotrimeric receptor (Homo sapiens) (UniProt Q9UBL9+P56373)"
  Endpoint Unit: "%"
  Result: 4
- Smiles Structure: "O=C1CC(=O)N(c2cccc(-c3noc(=S)[nH]3)n2)c2ccc3ccccc3c2N1"
  System: "P2X2/P2X3 heterotrimeric receptor (Homo sapiens) (UniProt Q9UBL9+P56373)"
  Endpoint Unit: "%"
  Result: 15

Q: Please provide the recorded Activity for `O=C1CC(=O)N(c2cccc(-c3noc(=S)[nH]3)c2)c2cc(C#Cc3ccccc3)c3ccccc3c2N1` , tested on P2X2/P2X3 heterotrimeric receptor (Homo sapiens) (UniProt Q9UBL9+P56373).
A: 5

Q: Quick one: `[N-]=[N+]=NCc1ccc2c3c(ccc2c1)N(c1cccc(-c2noc(=S)[nH]2)c1)C(=O)CC(=O)N3`
A: 2

Q: Also `Cc1cc(-c2noc(=S)[nH]2)cc(N2C(=O)CC(=O)Nc3c2ccc2ccccc32)c1` ?
A: 5

Q: Now give it for `[N-]=[N+]=NCc1ccc2c(Br)cc3c(c2c1)NC(=O)CC(=O)N3c1cccc(-c2noc(=S)[nH]2)c1` too.
A: -4

Q: And `CCCCC#Cc1cc2c(c3ccccc13)NC(=O)CC(=O)N2c1cccc(-c2noc(=S)[nH]2)c1` ?
A: 1

---

- System: P2X purinoceptor 1 (Homo sapiens) (UniProt P51575)
- Sequence (P51575 whole entry): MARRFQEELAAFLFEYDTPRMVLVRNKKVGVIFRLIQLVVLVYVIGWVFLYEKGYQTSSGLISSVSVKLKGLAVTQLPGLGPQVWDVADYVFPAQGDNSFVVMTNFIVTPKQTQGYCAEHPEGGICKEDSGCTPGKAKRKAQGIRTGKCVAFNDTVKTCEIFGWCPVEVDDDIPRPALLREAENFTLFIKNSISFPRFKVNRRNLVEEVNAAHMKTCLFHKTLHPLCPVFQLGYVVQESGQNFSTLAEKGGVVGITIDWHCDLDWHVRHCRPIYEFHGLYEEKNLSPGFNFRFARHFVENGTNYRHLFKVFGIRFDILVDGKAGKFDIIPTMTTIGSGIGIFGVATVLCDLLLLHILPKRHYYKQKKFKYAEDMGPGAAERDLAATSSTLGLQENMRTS
- Assay Notes: Antagonist activity at human P2X1R transfected in CHO-K1 cells at 30 uM preincubated for 30 mins followed by alpha,beta-meATP addition by […] based assay relative to control
- Format: cell-based
- Parameters: scale not given: the % may be the effect or the level left
Metric Name: Activity (%)
Use % as the unit, but write only the number.

- Smiles Structure: "[N-]=[N+]=NCc1ccc2c3c(ccc2c1)N(c1cccc(-c2noc(=S)[nH]2)c1)C(=O)CC(=O)N3"
  Activity, %: -5
- Smiles Structure: "Cc1cc(-c2noc(=S)[nH]2)cc(N2C(=O)CC(=O)Nc3c2ccc2ccccc32)c1"
  Activity, %: 16
- Smiles Structure: "O=C1CC(=O)N(c2cccc(-c3noc(=S)[nH]3)c2)c2cc(C#Cc3cccnc3)c3ccccc3c2N1"
  Activity, %: 9
- Smiles Structure: "O=C1CC(=O)N(c2cccc(-c3noc(=S)[nH]3)n2)c2ccc3ccccc3c2N1"
  Activity, %: 31
- Smiles Structure: "O=C1CC(=O)N(c2cc(-c3noc(=S)[nH]3)ccn2)c2ccc3ccccc3c2N1"
  Activity, %: 18
- Smiles Structure: "O=C1CC(=O)N(c2cncc(-c3noc(=S)[nH]3)c2)c2ccc3ccccc3c2N1"
  Activity, %: 15
- Smiles Structure: "O=C1CC(=O)N(c2cccc(-c3noc(=S)[nH]3)c2)c2cc(-c3ccccc3)c3ccccc3c2N1"
  Activity, %: 14
- Smiles Structure: "CCc1cc2c(c3ccccc13)NC(=O)CC(=O)N2c1cccc(-c2noc(=S)[nH]2)c1"
  Activity, %: 6

Q: Item `CC(=O)NCc1ccc2ccc3c(c2c1)NC(=O)CC(=O)N3c1cccc(-c2noc(=S)[nH]2)c1` has what recorded Activity?
A: 26

Reference for the values: ChEMBL document CHEMBL5104186
